# assay-summary: self-splicing fitness, log relative to wild type (ln ratio); higher = more splicing; Tetrahymena group I intron in knt gene, E. coli kanamycin selection, DiMSum; sequences stand for … in CUCUCU…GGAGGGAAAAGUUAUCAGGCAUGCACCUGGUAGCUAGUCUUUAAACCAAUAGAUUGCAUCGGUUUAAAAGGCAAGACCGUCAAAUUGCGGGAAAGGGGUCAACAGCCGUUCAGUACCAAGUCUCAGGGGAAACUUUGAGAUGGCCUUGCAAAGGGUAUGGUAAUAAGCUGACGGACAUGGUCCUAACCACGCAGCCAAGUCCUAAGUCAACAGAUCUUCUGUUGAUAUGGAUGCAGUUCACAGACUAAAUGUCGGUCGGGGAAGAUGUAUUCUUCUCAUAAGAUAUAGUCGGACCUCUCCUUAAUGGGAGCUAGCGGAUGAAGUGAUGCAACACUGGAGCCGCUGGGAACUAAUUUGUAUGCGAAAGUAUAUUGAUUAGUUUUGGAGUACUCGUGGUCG;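 further: selection with 25 µg/mL kanamycin versus none on LB agar overnight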
# assay-context: 37 °C
Listed sequences paired with reported self-splicing fitness (ln)

Here's what some known entries look like.
CAAAAGCAAUAUUACGUCGA: -1.06
UACGAGCAAUAUUACGAACA: -2.13
CACUAGCAAUAUUACGCGUG: -3.12
CAAAAGCAAUAUUACGGUUA: -0.514
GUUUAGCAAUAUUACGCUAG: -0.42

Name the reported self-splicing fitness (ln) value associated with the sequence UGCAAGCAAUAUUACGUAUC
-1.14

Also, CUGGAGCAAUAUUACGUAAG please.
-0.0976

Also, CGUCAGCAAUAUUACGGUCA please.
0.201

Also, CGGGAGCAAUAUUACGAACU please.
-1.25

Also, GAACAGCAAUAUUACGUGCU please.
-1.88

Also, GCUUAGCAAUAUUACGAAAG please.
-0.485

Also, UGGGAGCAAUAUUACGUUGU please.
-2.2

Also, CCCGAGCAAUAUUACGACCU please.
-2.19

Also, UCCUAGCAAUAUUACGUUAU please.
-2.59

Also, ACUGAGCAAUAUUACGGAGA please.
-3.08

Also, CGACAGCAAUAUUACGGCCA please.
-0.534

Also, UUUCAGCAAUAUUACGACCU please.
-0.834

Also, UGCAAGCAAUAUUACGCUUU please.
-1.85

Also, UGCCAGCAAUAUUACGAAGU please.
-2.97

Also, UGCAAGCAAUAUUACGGCAA please.
-0.447

Also, UAAGAGCAAUAUUACGUAAC please.
-1.44

Also, CUCGAGCAAUAUUACGACGU please.
-1.59

Also, UUACAGCAAUAUUACGUCGU please.
-2.26

Also, AACAAGCAAUAUUACGGAUC please.
-0.302

Also, AGUGAGCAAUAUUACGCUGG please.
-2.84

---

# assay-summary: self-splicing fitness, log relative to wild type (ln ratio); higher = more splicing; Tetrahymena group I intron in knt gene, E. coli kanamycin selection, DiMSum; sequences stand for … in CUCUCU…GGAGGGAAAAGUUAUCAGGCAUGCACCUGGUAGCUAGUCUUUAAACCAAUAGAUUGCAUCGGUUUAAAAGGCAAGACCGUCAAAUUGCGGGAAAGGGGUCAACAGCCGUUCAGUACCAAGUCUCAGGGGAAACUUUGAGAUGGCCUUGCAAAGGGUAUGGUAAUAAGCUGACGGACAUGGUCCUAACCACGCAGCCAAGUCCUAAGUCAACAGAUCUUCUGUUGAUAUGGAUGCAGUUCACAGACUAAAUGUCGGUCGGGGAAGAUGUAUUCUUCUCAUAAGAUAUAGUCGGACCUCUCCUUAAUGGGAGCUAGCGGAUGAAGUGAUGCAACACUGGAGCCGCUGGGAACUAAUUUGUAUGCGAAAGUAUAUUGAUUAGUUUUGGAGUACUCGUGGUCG
# assay-context: 37 °C
The label depends only on self-splicing fitness (ln): met if it is at least -1, not met if it is smaller.

Previously resolved entries follow.
AGAGAGCAAUAUUACGUUUC: not met
CAUCAGCAAUAUUACGGUAU: not met
GUGAAGCAAUAUUACGUUGA: met

Does self-splicing fitness (ln) meet or surpass -1 for UCCGAGCAAUAUUACGCUAU ?
not met

Also, AUUAAGCAAUAUUACGGUAA please.
not met

Also, CGUAAGCAAUAUUACGUGAG please.
not met

---

# assay-summary: self-splicing fitness, log relative to wild type (ln ratio); higher = more splicing; Tetrahymena group I intron in knt gene, E. coli kanamycin selection, DiMSum; sequences stand for … in CUCUCU…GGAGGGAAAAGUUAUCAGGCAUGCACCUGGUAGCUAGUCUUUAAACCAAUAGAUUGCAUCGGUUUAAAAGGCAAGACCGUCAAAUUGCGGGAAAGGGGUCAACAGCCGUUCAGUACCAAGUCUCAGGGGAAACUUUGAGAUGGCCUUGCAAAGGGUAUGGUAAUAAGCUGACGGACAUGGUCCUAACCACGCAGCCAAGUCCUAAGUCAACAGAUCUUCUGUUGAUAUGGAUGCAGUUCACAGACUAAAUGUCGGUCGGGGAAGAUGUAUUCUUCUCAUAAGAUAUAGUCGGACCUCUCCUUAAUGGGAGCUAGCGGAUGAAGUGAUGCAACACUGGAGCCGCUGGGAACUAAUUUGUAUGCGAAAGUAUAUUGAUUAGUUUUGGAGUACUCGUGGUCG
# assay-context: 37 °C
Class (required): determined from self-splicing fitness (ln); valid ranges are low group (below -2), middle group (-2 to below -0.7), high group (-0.7 or more)

CGGGAGCAAUAUUACGUGGC: low group
AUGCAGCAAUAUUACGCAUG: low group
ACUGAGCAAUAUUACGCAUU: middle group
AGGAAGCAAUAUUACGUUGC: middle group
AAUGAGCAAUAUUACGGUCG: middle group

Now look at this entry.
Lab note: which band did ACCGAGCAAUAUUACGUAAA land in?
middle group

---

Listed sequences paired with reported self-splicing fitness (ln)
# assay-summary: self-splicing fitness, log relative to wild type (ln ratio); higher = more splicing; Tetrahymena group I intron in knt gene, E. coli kanamycin selection, DiMSum; sequences stand for … in CUCUCU…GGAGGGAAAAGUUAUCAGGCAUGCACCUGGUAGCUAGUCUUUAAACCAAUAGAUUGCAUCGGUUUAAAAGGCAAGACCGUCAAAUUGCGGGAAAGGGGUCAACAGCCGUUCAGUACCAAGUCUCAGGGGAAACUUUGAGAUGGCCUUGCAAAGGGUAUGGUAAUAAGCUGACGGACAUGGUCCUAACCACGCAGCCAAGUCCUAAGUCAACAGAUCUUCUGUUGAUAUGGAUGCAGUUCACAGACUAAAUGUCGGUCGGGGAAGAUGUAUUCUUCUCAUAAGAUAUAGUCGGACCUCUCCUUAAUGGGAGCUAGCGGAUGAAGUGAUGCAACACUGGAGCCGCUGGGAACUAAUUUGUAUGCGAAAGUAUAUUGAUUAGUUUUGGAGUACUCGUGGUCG
# assay-context: 30 °C
Lab note: jot down the number only; don't add units.

UUCUAGCAAUAUUACGCAUG: -3.42
AAGUAGCAAUAUUACGGCCC: -0.413
CACCAGCAAUAUUACGGAUG: -3.11

Name the reported self-splicing fitness (ln) value associated with the sequence UUUGAGCAAUAUUACGUAGG
-2.52

---

# assay-summary: self-splicing fitness, log relative to wild type (ln ratio); higher = more splicing; Tetrahymena group I intron in knt gene, E. coli kanamycin selection, DiMSum; sequences stand for … in CUCUCU…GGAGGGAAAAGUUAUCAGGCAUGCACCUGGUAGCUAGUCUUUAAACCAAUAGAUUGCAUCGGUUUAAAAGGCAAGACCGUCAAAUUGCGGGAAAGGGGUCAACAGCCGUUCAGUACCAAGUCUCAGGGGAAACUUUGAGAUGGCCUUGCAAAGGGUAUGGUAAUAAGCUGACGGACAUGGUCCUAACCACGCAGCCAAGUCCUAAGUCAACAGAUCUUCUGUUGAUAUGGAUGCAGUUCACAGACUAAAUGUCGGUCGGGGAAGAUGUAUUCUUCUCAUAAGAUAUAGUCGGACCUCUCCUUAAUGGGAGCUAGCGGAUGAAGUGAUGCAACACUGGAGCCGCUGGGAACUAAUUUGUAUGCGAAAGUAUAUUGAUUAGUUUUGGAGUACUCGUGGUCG
# assay-context: 37 °C
endpoint: self-splicing fitness (ln)
Lab note: jot down the number only; don't add units.

Here's what some known entries look like.
GAAAAGCAAUAUUACGAGUG: -0.813
GCCAAGCAAUAUUACGACGC: 0.3
GGAUAGCAAUAUUACGUUUC: -1.84

Continue with the sequence presented below.
Name the reported self-splicing fitness (ln) value associated with the sequence GGAUAGCAAUAUUACGCUAU
-2.05
